# assay_explanation: Plasma kinetics, intravenous, beagle dogs
# Format: in vivo, female beagle dogs
# measurement_conditions: female, beagle, dog, plasma; IV 1 mg/kg
measurement_kind: half-life (h)
Give the quantity in h, number only.

INPUT: For the compound shown here, Cc1cc(Cl)c(COc2cccc3c(-n4cc(F)cn4)cc(C)nc23)c(Cn2cccc(C#N)c2=O)n1 [CFMQ] , give the reported half-life.
OUTPUT: 2.69

* * *

# assay_explanation: Solubility of CFMQ in vehicles
# Type: physicochemical
# measurement_conditions: propylene glycol, organic solvent or mixture
# Method: The physicochemical properties of 1-((4-Chloro-3-(((4-(4-fluoro-1H-pyrazol-1-yl)-2-methylquinolin-8-yl)oxy)methyl)-6-methylpyridin-2-yl)methyl)-2-oxo-1,2-dihydropyridine-3-carbonitrile (CFMQ) were determined using standard methods. CFMQ was a free base with a molecular weight of 514.9 Da and was a nonhygroscopic, crystalline powder with a melting point of about 214° C.
measurement_kind: solubility (µg/mL)
Give the quantity in µg/mL, number only.

INPUT: For the compound shown here, Cc1cc(Cl)c(COc2cccc3c(-n4cc(F)cn4)cc(C)nc23)c(Cn2cccc(C#N)c2=O)n1 [CFMQ] , give the reported solubility.
OUTPUT: 100

* * *

# assay_explanation: Pharmacokinetics, single oral gavage, Yucatan mini-pig
# Assay type: in vivo, female Yucatan Miniature Swine
# measurement_conditions: female, Yucatan, pig (minipig), plasma; PO 10 mg/kg, 2.0 hr; read-out: Average Concentration of HGT3711
measurement_kind: concentration at 2 hr (ng/mL)
Give the quantity in ng/mL, number only.

INPUT: For the compound shown here, "Cc1cc(Cl)c(COc2cccc3c(-n4cc(F)cn4)cc(C)nc23)c(Cn2cccc(C#N)c2=O)n1" , give the reported concentration at 2 hr.
OUTPUT: 2060

* * *

# assay_explanation: Pharmacokinetics, single oral gavage, 2 formulations, Wistar and Sprague-Dawley rats
# Format: in vivo
# measurement_conditions: male, Sprague-Dawley, rat, plasma, po, 75 mg/kg, Formulation 2, S-D (Male)
measurement_kind: AUC(0-inf) (ng·h/mL)
Give the quantity in ng·h/mL, number only.

INPUT: For the compound shown here, "Cc1cc(Cl)c(COc2cccc3c(-n4cc(F)cn4)cc(C)nc23)c(Cn2cccc(C#N)c2=O)n1" , give the reported AUC(0-inf).
OUTPUT: 745

* * *

# assay_explanation: Pharmacokinetics, single oral gavage, 2 formulations, Wistar and Sprague-Dawley rats
# Type: in vivo
# measurement_conditions: female, Sprague-Dawley, rat, plasma, po, 75 mg/kg, Formulation 1, S-D (Female)
measurement_kind: half-life

INPUT: For the molecule shown here, "Cc1cc(Cl)c(COc2cccc3c(-n4cc(F)cn4)cc(C)nc23)c(Cn2cccc(C#N)c2=O)n1" , give the reported half-life.
OUTPUT: 2.01 h

* * *

# assay_explanation: Pharmacokinetics, single oral gavage, 2 formulations, Wistar and Sprague-Dawley rats
# Format: in vivo
# measurement_conditions: male, Wistar, rat, plasma, po, 15 mg/kg, Formulation 1, Wistar (Male)
measurement_kind: Cmax (ng/mL)
Give the quantity in ng/mL, number only.

INPUT: For the molecule shown here, Cc1cc(Cl)c(COc2cccc3c(-n4cc(F)cn4)cc(C)nc23)c(Cn2cccc(C#N)c2=O)n1 [CFMQ] , give the reported Cmax.
OUTPUT: 77.4

* * *

# assay_explanation: Pharmacokinetics, single oral gavage, CD-1 mice
# Type: in vivo, female CD-1 mice
# measurement_conditions: female, CD-1, mouse, plasma, 100 mg/kg
measurement_kind: AUC(0-inf) (ng·h/mL)
Give the quantity in ng·h/mL, number only.

INPUT: For the molecule shown here, "Cc1cc(Cl)c(COc2cccc3c(-n4cc(F)cn4)cc(C)nc23)c(Cn2cccc(C#N)c2=O)n1" , give the reported AUC(0-inf).
OUTPUT: 10500

* * *

# system_under_test: μ (h) (MOP) (agonist site) (Homo sapiens, UniProt P35372)
# Sequence (P35372 whole entry): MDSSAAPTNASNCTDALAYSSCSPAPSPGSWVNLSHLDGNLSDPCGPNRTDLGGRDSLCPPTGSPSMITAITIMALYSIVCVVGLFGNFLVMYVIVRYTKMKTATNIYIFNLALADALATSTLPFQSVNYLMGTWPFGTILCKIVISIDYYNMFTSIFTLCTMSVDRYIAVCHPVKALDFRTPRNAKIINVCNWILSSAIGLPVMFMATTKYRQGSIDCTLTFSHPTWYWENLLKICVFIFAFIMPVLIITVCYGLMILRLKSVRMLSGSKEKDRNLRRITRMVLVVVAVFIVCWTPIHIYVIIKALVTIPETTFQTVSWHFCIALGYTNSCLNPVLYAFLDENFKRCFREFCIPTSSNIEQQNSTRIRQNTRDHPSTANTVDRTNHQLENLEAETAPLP
# assay_explanation: Off-target receptor binding: μ (MOP)
measurement_kind: Ki (nM)
Give the quantity in nM, number only.

INPUT: Give μ (h) (MOP) (agonist site) (Homo sapiens, UniProt P35372) Ki for "Cc1cc(Cl)c(COc2cccc3c(-n4cc(F)cn4)cc(C)nc23)c(Cn2cccc(C#N)c2=O)n1"
OUTPUT: 2700

* * *

# assay_explanation: Pharmacokinetics, single oral gavage, 2 formulations, Wistar and Sprague-Dawley rats
# Type: in vivo
# measurement_conditions: female, Wistar, rat, plasma, po, 75 mg/kg, Formulation 2, Wistar (Female)
measurement_kind: AUC(0-t)
Answer shape: numeric part, then the unit.

INPUT: For the compound shown here, Cc1cc(Cl)c(COc2cccc3c(-n4cc(F)cn4)cc(C)nc23)c(Cn2cccc(C#N)c2=O)n1 [CFMQ] , give the reported AUC(0-t).
OUTPUT: 10700 ng·h/mL

* * *

# assay_explanation: Plasma kinetics, intravenous, beagle dogs
# Assay type: in vivo, female beagle dogs
# measurement_conditions: female, beagle, dog, plasma; IV 1 mg/kg, 0.50 hr; read-out: Average Concentration of HGT3711
# Description: CFMQ (HGT3711) was administered to fasted female beagle dogs by a single intravenous injection at 1.0 mg/kg, formulated in 100% PEG200 (Table 10). Blood samples were taken via jugular vein puncture prior to administration and at 0.083 (5 min), 0.25 (15 min), 0.50 (30 min), 1, 4, 8 and 24 hours post dose. Plasma concentrations of CFMQ (HGT3711) were determined by LC-MS/MS and concentrations below the limit of quantitation (1.0 ng/mL) were assigned a value of zero for pharmacokinetic analysis. […]
measurement_kind: concentration at 0.5 hr (ng/mL)
Give the quantity in ng/mL, number only.

INPUT: For the compound shown here, Cc1cc(Cl)c(COc2cccc3c(-n4cc(F)cn4)cc(C)nc23)c(Cn2cccc(C#N)c2=O)n1 [CFMQ] , give the reported concentration at 0.5 hr.
OUTPUT: 1070

* * *

# assay_explanation: Plasma kinetics, intravenous, beagle dogs
# Type: in vivo, female beagle dogs
# measurement_conditions: female, beagle, dog, plasma; IV 1 mg/kg
measurement_kind: AUC(0-t) (ng·h/mL)
Give the quantity in ng·h/mL, number only.

INPUT: For the compound shown here, "Cc1cc(Cl)c(COc2cccc3c(-n4cc(F)cn4)cc(C)nc23)c(Cn2cccc(C#N)c2=O)n1" , give the reported AUC(0-t).
OUTPUT: 5160

* * *

# assay_explanation: Cross-over PK, IV and PO, cynomolgus monkeys
# Type: in vivo, male cynomolgus monkey
# measurement_conditions: male, cynomolgus monkey, plasma; IV (1 mg/kg), Mean
measurement_kind: AUC(0-t) (ng·h/mL)
Give the quantity in ng·h/mL, number only.

INPUT: For the molecule shown here, "Cc1cc(Cl)c(COc2cccc3c(-n4cc(F)cn4)cc(C)nc23)c(Cn2cccc(C#N)c2=O)n1" , give the reported AUC(0-t).
OUTPUT: 679

* * *

# assay_explanation: Pharmacokinetics, single oral gavage, 2 formulations, Wistar and Sprague-Dawley rats
# Assay type: in vivo
# measurement_conditions: male, Wistar, rat, plasma, po, 15 mg/kg, Formulation 2, Wistar (Male)
measurement_kind: AUC(0-inf) (ng·h/mL)
Give the quantity in ng·h/mL, number only.

INPUT: For the compound shown here, Cc1cc(Cl)c(COc2cccc3c(-n4cc(F)cn4)cc(C)nc23)c(Cn2cccc(C#N)c2=O)n1 [CFMQ] , give the reported AUC(0-inf).
OUTPUT: 155

* * *

# assay_explanation: Pharmacokinetics, single oral gavage, 2 formulations, Wistar and Sprague-Dawley rats
# Assay type: in vivo
# measurement_conditions: female, Sprague-Dawley, rat, plasma, po, 75 mg/kg, Formulation 1, S-D (Female)
measurement_kind: AUC(0-t) (ng·h/mL)
Give the quantity in ng·h/mL, number only.

INPUT: For the compound shown here, "Cc1cc(Cl)c(COc2cccc3c(-n4cc(F)cn4)cc(C)nc23)c(Cn2cccc(C#N)c2=O)n1" , give the reported AUC(0-t).
OUTPUT: 11900

* * *

# assay_explanation: Pharmacokinetics, single oral gavage, 2 formulations, Wistar and Sprague-Dawley rats
# Format: in vivo
# measurement_conditions: female, Wistar, rat, plasma, po, 150 mg/kg, Formulation 2, Wistar (Female)
# Protocol: Pharmacokinetics and gender differences were evaluated with 2 different formulations of CFMQ (HGT3711) in 2 different types of rat models. These attributes were investigated in a single oral gavage study. Male and female Wistar rats (n=3 per dose group) received CFMQ (HGT3711) at 15, […], and or 150 mg/kg. […] The two vehicle formulations evaluated were formulation 1: 10% N-methyl pyrrolidone (NMP): 10% Ethanol: 30% polyethylene glycol (PEG400): 50% […] […]
measurement_kind: Tmax (min)
Give the quantity in min, number only.

INPUT: For the compound shown here, "Cc1cc(Cl)c(COc2cccc3c(-n4cc(F)cn4)cc(C)nc23)c(Cn2cccc(C#N)c2=O)n1" , give the reported Tmax.
OUTPUT: 19.8
